- Tgt: T1, integrin αVβ3 (UniProt P06756 31-992; P05106 27-718)
- T1 construct: Coated on the ELISA plate
- Test Details: ELISA, coated integrin, anti-MICA-HRP
- Protocol: ELISA assays of the integrin target-binding of soluble MICA molecules generated from pKK128-131 were performed as follows. After the respective integrins were adhered to the bottoms of the wells of the ELISA plate, the wells were washed and blocked. […] The soluble MICA molecules captured by the integrins were detected by HRP-conjugated antibody to human MICA developed with Ultra TMB-ELISA substrate and the optical densities read. […]
Endpoint Name: αvβ3 signal/ng (signal/ng MICA)
Numbers only, in signal/ng MICA.

Recorded αvβ3 signal/ng, per entry:
soluble MICA generated from pKK128 (loop 1 extended 5.1sp, loop 3 extended 3.2sp) (designed binder, From pKK115 (from pKK46: His6, Glu125); secreted by 293T cells; also called 1-5.1sp/3-3.2sp) HHHHHHEPHSLRYNLTVLSWDGSVQSGFLTEVHLDGQPFLRCDRQKCRAKPQGQWAEDVLGNKTWDRETRDLTGNGKDLRMTLAHIKDQKEGLHSLQEIRVCEIHEDNSTRSSQHFYYDGELFLSQNLETEEWTMPQSSRAQTLAMNVRNFLKEDAMKTKTHYHAMHADCLQELRRYLKSGVVLRRTVPPMVNVTSGGSGGGSVTRGDTFTQSSGGSGGGVTCRASGFYPWNITLSWRQDGVSLSHDTQQWGDVLPDGNGTYQTWVATRISGGSGGGSTSRGDHPRTQSGGSGGGCYMEHSGNHSTHPVPSGK :: 22.9
soluble MICA generated from pKK46 (loop 1 insert extended 5.1sp) (designed binder, From pKK34 (His6, Glu125); secreted by 293T cells; also called 1-5.1sp) HHHHHHEPHSLRYNLTVLSWDGSVQSGFLTEVHLDGQPFLRCDRQKCRAKPQGQWAEDVLGNKTWDRETRDLTGNGKDLRMTLAHIKDQKEGLHSLQEIRVCEIHEDNSTRSSQHFYYDGELFLSQNLETEEWTMPQSSRAQTLAMNVRNFLKEDAMKTKTHYHAMHADCLQELRRYLKSGVVLRRTVPPMVNVTSGGSGGGSVTRGDTFTQSSGGSGGGVTCRASGFYPWNITLSWRQDGVSLSHDTQQWGDVLPDGNGTYQTWVATRICQGEEQRFTCYMEHSGNHSTHPVPSGK :: 9.42

Exam item: Would you kindly share the measured αvβ3 signal/ng for soluble MICA generated by pSW273 (wild type loops, negative control) (ligand, Secreted by 293T cells; six His between signal peptide and residue 1; made from pSW267 (Glu125); also called WT) HHHHHHEPHSLRYNLTVLSWDGSVQSGFLTEVHLDGQPFLRCDRQKCRAKPQGQWAEDVLGNKTWDRETRDLTGNGKDLRMTLAHIKDQKEGLHSLQEIRVCEIHEDNSTRSSQHFYYDGELFLSQNLETEEWTMPQSSRAQTLAMNVRNFLKEDAMKTKTHYHAMHADCLQELRRYLKSGVVLRRTVPPMVNVTRSEASEGNITVTCRASGFYPWNITLSWRQDGVSLSHDTQQWGDVLPDGNGTYQTWVATRICQGEEQRFTCYMEHSGNHSTHPVPSGK ?
Marked response: 6.73

Numbers sourced from patent US20150165065A1.
